Test system: NCI-H460 lung
assay-details: NCI-60 one-dose screen, 48 h (100 = growth as untreated, 0 = no growth, -100 = all killed)
conditions: 10 µM unless noted
The panel holds about 83,000 compounds, 20% with a hit somewhere; the sample as a whole holds those more often.
measured-attribute: growth (%)

{"compound-smiles": "C=CC(=O)Nc1cccc(Oc2nc(Nc3ccc(N4CCN(C)CC4)cc3)nc3ccsc23)c1", "target-desc": "NCI-H460 lung", "measured-attribute": "growth", "recorded-measurement": -59.8}
{"compound-smiles": "Cc1c(NC(=O)OC[C@@H]2COCCN2)cn2ncnc(Nc3ccc4c(cnn4Cc4cccc(F)c4)c3)c12", "target-desc": "NCI-H460 lung", "measured-attribute": "growth", "recorded-measurement": 4.49}
{"compound-smiles": "CC[n+]1c(/C=C/C=C2\\N(C)c3ccccc3C2(C)C)sc2ccccc21", "target-desc": "NCI-H460 lung", "measured-attribute": "growth", "recorded-measurement": 7.56}
{"compound-smiles": "CNC(=O)c1c(C)oc2cc(Oc3ncnc4cc(OC)c(OC)cc34)ccc12", "target-desc": "NCI-H460 lung", "measured-attribute": "growth", "recorded-measurement": 106}
{"compound-smiles": "COc1cc2nccc(Oc3ccc(NC(=O)C4(C(=O)Nc5ccc(F)cc5)CC4)cc3)c2cc1OC", "target-desc": "NCI-H460 lung", "measured-attribute": "growth", "recorded-measurement": 6.12}
{"compound-smiles": "Cc1ncc(-c2ccnc(Nc3ccc(S(C)(=O)=O)cc3)n2)n1C(C)C", "target-desc": "NCI-H460 lung", "measured-attribute": "growth", "recorded-measurement": -17.2}
{"compound-smiles": "CCCCCCCC(=O)SCC/C=C/[C@@H]1CC(=O)NCc2cccc(n2)C2=N[C@@](C)(CS2)C(=O)N[C@@H](C(C)C)C(=O)N1", "target-desc": "NCI-H460 lung", "measured-attribute": "growth", "recorded-measurement": 20}
